These data points were gathered from patent US20250197451A1.

target: T1, biotin-labelled EZH2 protein (UniProt Q15910 1-746, limits assumed, biotin label (EZ-link NHS-PEO4-Biotinylation kit)); assay: KDM2B peptide array probed with biotin-EZH2 1 ug/ml, SA-HRP/ECL;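 further: 100% is the highest background-corrected spot optical density on the membrane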;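 further: Background-corrected optical density of each spot on the membrane, given as percent of the brightest spot (100%), color developed for 5 minutes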
T1 construct: Probe in solution (1 ug/ml) on the KDM2B peptide microarray; also called NHS-PEO4-Biotinylation-labelled EZH2 protein; recombinant protein
T1 sequence (Q15910 whole entry): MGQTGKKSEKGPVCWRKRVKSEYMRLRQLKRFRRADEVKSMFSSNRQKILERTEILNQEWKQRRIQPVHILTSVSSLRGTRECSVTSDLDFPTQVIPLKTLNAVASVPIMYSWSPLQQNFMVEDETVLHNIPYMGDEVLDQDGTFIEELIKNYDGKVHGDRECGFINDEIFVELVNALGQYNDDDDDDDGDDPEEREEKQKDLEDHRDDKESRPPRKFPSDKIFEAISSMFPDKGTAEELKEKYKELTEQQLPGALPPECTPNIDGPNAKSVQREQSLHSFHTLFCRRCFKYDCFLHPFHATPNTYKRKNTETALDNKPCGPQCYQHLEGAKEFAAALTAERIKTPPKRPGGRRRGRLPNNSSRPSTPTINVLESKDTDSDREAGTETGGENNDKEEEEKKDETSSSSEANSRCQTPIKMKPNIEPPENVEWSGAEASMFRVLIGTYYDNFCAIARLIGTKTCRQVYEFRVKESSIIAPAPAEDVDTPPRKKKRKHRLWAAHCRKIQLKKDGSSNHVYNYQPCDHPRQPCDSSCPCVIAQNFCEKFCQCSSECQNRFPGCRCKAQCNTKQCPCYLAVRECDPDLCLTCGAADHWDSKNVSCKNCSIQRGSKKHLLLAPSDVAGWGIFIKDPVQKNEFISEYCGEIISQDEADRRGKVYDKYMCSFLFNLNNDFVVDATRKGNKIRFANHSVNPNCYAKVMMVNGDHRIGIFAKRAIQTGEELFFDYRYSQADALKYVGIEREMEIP
Reported Intensity (%) values are given for each entry in this list.
QUANTITY: Intensity (%)

INSERT INTO results (binder, quantity, result) VALUES
  ('VDWVDNMWPQHLKEK [peptide 40]', 'Intensity (%)', '0%'),
  ('PPDSLPLDDGAAHVM [peptide 211]', 'Intensity (%)', '0%'),
  ('EEKLRSQLYQGDFVH [peptide 15]', 'Intensity (%)', '0%'),
  ('TENSLANENQQPIKS [peptide 193]', 'Intensity (%)', '0%'),
  ('DEEGEGRDRAPKPPT [peptide 86]', 'Intensity (%)', '0.03%'),
  ('MDNRSKLRNIVELRL [peptide 242]', 'Intensity (%)', '0.64%'),
  ('LPNKELSRELSKELN [peptide 189]', 'Intensity (%)', '0%');
